Measured target: Recombinant human his-tagged IGF 1R extracellular domain protein (human) (UniProt P08069)
Method summary: SPR, captured antibody, pH 7.4
Quantity measured: koff (s⁻¹)
Respond numerically; units are s⁻¹ and should not be typed.

Solved cases below.
Exam item: Quick one: koff for VRDN-03091 (antibody, V domains shown) VH: QVQLVESGGGVVQPGRSLRLSCAASGFTFSSYGMHWVRQAPGKGLEWVAIIWFDGSSTYYADSVRGRFTISRDNSKNTLYLQMNSLRAEDTAVYYCARELGRRYFDLWGRGTLVTVSS VL: EIVLTQSPATLSLSPGERATLSCGASQSVSSSYLAWYQQKPGQAPRLLIYDASKRATGIPARFSGSGSGTDFTLTISSLEPEDFAVYYCQQRSKWPPWTFGQGTKVEIK ?
Marked response: 0.00902

Exam item: // koff lookup, key: VRDN-03118 (antibody, V domains shown) VH: EVQLVESGGGVVQPGRSLRLSCAASGFTFSSYSMHWVRQAPGKGLEWVAIIWFDGSSKYYVDSVKSRFTISRDNSKNTLYLQMNSLRAEDTAVYYCARELGRRYFDIWGQGTLVTVSS VL: EIVMTQSPATLSVSPGERATLSCRASQGVSSYLAWYQQKPGQAPRLLIYGASTRATGIPARFSGSGSGTEFTLTISSLQSEDFAVYYCQQRSRWPPWTFGQGTKLEIK
Marked response: 0.000107

// switching to the query binder
Exam item: Which koff reading was recorded for the binder VRDN-03054 (antibody, V domains shown) VH: QVELVESGGGVVQPGRSQRLSCAASGFTFSSYGMHWVRQAPGKGLEWVAIIWFDGSSTYYADSVRGRFTISRDNSKNTLYLQMNSLRAEDTAVYFCARELGRRYFDLWGRGTLVSVSS VL: EIVLTQSPATLSLSPGERATLSCRASQSVSSYLAWYQQKPGQAPRLLIYDASKRHTGIPARFSGSGSGTDFTLTISSLEPEDFAVYYCQQRSKWPPWTFGQGTKVESK ?
Marked response: 0.000104
